# KA % DSPL @ 10 μM per entry
# Test system: kainate (KA) receptor ([^3 H]Kainate binding, washed synaptosomal membranes from the rat forebrain)
# METHOD_SUMMARY: [^3 H]-kainate displacement, EAA receptor binding
# STATED_CONDITIONS: 10 μM test compound, [^3 H]Kainate 5 nM, pH 7.4, 30 min
Your answer should be a plain number; it is taken to be in %.

{"columns": ["MOLECULE", "KA % DSPL @ 10 μM / %"],
 "data": [
  ["O=c1[nH]c2cc(Cl)c(Cl)cc2n2c(-c3ccccc3)nnc12 [Compound 12]", 8.2],
  ["O=c1[nH]c2c(Cl)cccc2c2ccnn12 [Compound 30]", -0.4],
  ["Clc1cc2ncc3nccn3c2cc1Cl [Compound 36, 7,8-dichloroimidazo[1,2-a]quinoxaline]", 23.6],
  ["O=c1[nH]c2cc(Cl)c(Cl)cc2n2c(C(F)(F)F)nnc12 [Compound 10]", 12.5]
]}

Any idea what KA % DSPL @ 10 μM was measured for O=c1[nH]c2cc(C(F)(F)F)ccc2c2ccnn12 [Compound 35] ?
8.4

Name the reported KA % DSPL @ 10 μM value associated with the molecule CCc1nnc2c(=O)[nH]c3cc(Cl)c(Cl)cc3n12 [Compound 4]
21.4

// provenance: patent US5196421A
